Below, each entry is listed alongside its reported superoxide response (% of plate).
Assay: calorie-restriction mimetic ROS inhibitors, yeast – validation compound set, pilot screen (AID 2706);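 also: yeast exposed to compound for one week at 30 degrees C before staining; 100% = mean of all compound wells on the same plate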
Details: S. cerevisiae aging, superoxide DHE fluorescence; at 10 µM; stronger effect = lower value
Number in %, nothing else.

Nc1ccc2cn[nH]c2c1
109

In: Give the reported superoxide response (% of plate) for this compound. "COc1ccc2c(=O)c(-c3cnn(-c4ccccc4)c3)c(C)oc2c1"
Out: 91.1

In: Give the reported superoxide response (% of plate) for this compound. "CC(=O)Nc1ccccc1C(=O)C(=O)Nc1ccccc1"
Out: 102

In: Give the reported superoxide response (% of plate) for this compound. "O=C(O)Cc1ccc(O)c(F)c1"
Out: 111

In: Give the reported superoxide response (% of plate) for this compound. Cc1ccc2c(c1)C1CN(C)CCC1N2S(=O)(=O)c1ccc(Oc2ccc([N+](=O)[O-])cc2)cc1 (centres undefined)
Out: 97.8

In: Give the reported superoxide response (% of plate) for this compound. "O=C(/C=C/c1c[nH]c2ccccc12)c1cccc2ccccc12"
Out: 94

In: Give the reported superoxide response (% of plate) for this compound. "O=C(Cc1ccccc1)NCC(=O)OCC(=O)c1ccccc1Cl"
Out: 92.9

###

Biological target: Regulator of G-protein signaling 19 (Homo sapiens)
Experiment: small molecules altering RGS protein interactions with GNAO1 – biochemical, multiplexed beads, flow cytometry, RGS4/7/8/16/19, primary screen (AID 1504);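 also: fluorescently labeled Galpha-o bound to GDP with aluminium fluoride binding biotinylated RGS beads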
Settings: multiplexed bead flow cytometry, measured here: RGS19 interaction, at 10 µM
This is one part of the list.
Definition: the class of an entry is the range in LOW (below 90%), MEDIUM (90% to below 300%), HIGH (300% or more) that contains its RGS19–Galpha-o binding response.

In: Which bin, given its RGS19–Galpha-o binding response, does Cc1c(CN2CCCC(C(=O)c3cccc(Cl)c3)C2)c(=O)n(-c2ccccc2)n1C (configuration not stated) occupy?
Out: LOW

In: Which bin, given its RGS19–Galpha-o binding response, does "Cc1cc(=O)n2[nH]c(-c3sccc3-n3c(C)ccc3C)cc2n1" occupy?
Out: HIGH

In: Which bin, given its RGS19–Galpha-o binding response, does "CC(C)(C)NC(=O)c1cccc(NC(=O)Cc2ccc(Br)cc2)c1" occupy?
Out: MEDIUM

###

Assay: Nile Red efflux blockade in pump-expressing yeast – validation compound set, multiplex, phenotypic, pilot screen (AID 588506);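 also: Nile Red retained in cells so higher fluorescence means more efflux inhibition; 0 = negative control wells and 1 = enniatin B 25 µM full block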
Conditions: S. cerevisiae pump-expressing triplex, Nile Red efflux flow cytometry; at 10 µM; stronger effect = higher value; the pumps come from Candida albicans
Activity calls are given as the source filed them.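 Rule for the calls: active = efflux inhibition above 0.42, the validation set average plus 4 SD; inconclusive = no clear call, values can overlap the other calls; inactive = the rest.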
parameter-measured: efflux inhibition (fraction of control)

COc1ccccc1C(=O)Oc1ccc2c(c1)O/C(=C\c1ccncc1)C2=O
0.17 (inactive)
Cc1ccc(Cl)c(Nc2ccccc2C(=O)O)c1Cl
-0.13 (inactive)
C/C(=N\NC(=O)c1ccccc1[N+](=O)[O-])c1ccc(Br)s1
-0.235 (inactive)
COCCCN1C(=O)C(=O)/C(=C(/O)c2ccc3c(c2)CC(C)O3)C1c1cccnc1 (stereo not given)
0 (inactive)
O=C(CS(=O)(=O)c1ccccc1)c1ccc2c(c1)OCCO2
0.12 (inactive)

In: Give the reported efflux inhibition (fraction of control) for this molecule. "CCOC(=O)c1ncn2c1CN(C)C(=O)c1cc(F)ccc1-2"
Out: -0.025 (inactive)

In: Give the reported efflux inhibition (fraction of control) for this molecule. "Cc1cc(O)c(C(=O)Cc2csc(C)n2)c(O)c1"
Out: 0.46 (active)

In: Give the reported efflux inhibition (fraction of control) for this molecule. COc1c(O)ccc2c1CN1CCc3cc4c(cc3C1C2)OCO4 (stereo not given)
Out: 0.66 (active)

In: Give the reported efflux inhibition (fraction of control) for this molecule. "CC(=O)[C@H]1CC[C@H]2[C@@H]3CCC4=CC(=O)CC[C@]4(C)[C@H]3[C@H](O)C[C@]12C"
Out: 0.12 (inactive)

In: Give the reported efflux inhibition (fraction of control) for this molecule. "COc1cc(CNc2ccc(C)c(C)c2)cc(OC)c1OC"
Out: 0 (inactive)

###

Assay: reduced mouse 2C T cell binding to pMHC/ICAM-1 vesicles – MLPCN validation set, flow cytometry, LFA-1/ICAM-1 modulator project, pilot screen (AID 2523)
Conditions: 2C mouse CD8+ T cells, at 7 µM, stronger effect = lower value; measured here: CD8+/vesicle+ event percentage
parameter-measured: double positive events (%)
Number in %, nothing else.

Example results:
COc1ccccc1OCC(=O)O
61.5
CC(C)CC(=O)NC(NC(=O)CC(C)C)c1cccc([N+](=O)[O-])c1
60.1
COC(=O)C1=C(C)NC(C)=C([N+](=O)[O-])C1c1ccccc1C(F)(F)F (stereo unspecified)
58.2

In: Give the reported double positive events for this molecule. "COc1ccc(C(=O)Oc2ccc3c(C)cc(=O)oc3c2C(C)=O)cc1"
Out: 61.4

In: Give the reported double positive events for this molecule. CCOc1ccc(C(NC(C)=O)c2ccc(OC)c(OC)c2)cc1 (stereo unspecified)
Out: 58.9

In: Give the reported double positive events for this molecule. CCOC(=O)C1CCCN(Cc2nc(Cc3cccc(F)c3)no2)C1 (stereo unspecified)
Out: 58.5

In: Give the reported double positive events for this molecule. O=C1C(O)CC2c3ccccc3CC3(CCCC3)N12 (stereo unspecified)
Out: 61.4

In: Give the reported double positive events for this molecule. CCOc1ccc(C(=O)NC(C)C2COc3ccccc3O2)cc1 (stereo unspecified)
Out: 61.2

In: Give the reported double positive events for this molecule. CN1CC2CCCC3(C1)C(=O)NC1(CCCCC1)N=C23 (stereo unspecified)
Out: 58.9

In: Give the reported double positive events for this molecule. CC1(C)C(=O)OC(c2cccs2)C2(CCCCC2)C1=O (stereo unspecified)
Out: 61.1

In: Give the reported double positive events for this molecule. CC(N=C(NC#N)Nc1ccncc1)C(C)(C)C (stereo unspecified)
Out: 59.1

In: Give the reported double positive events for this molecule. "COc1cc(SC)ccc1C(=O)NC(C)C"
Out: 58.7

In: Give the reported double positive events for this molecule. CC(C)COC(=O)C1C(=O)CC(C)(O)C(C(=O)OCC(C)C)C1c1cccnc1 (stereo unspecified)
Out: 59.8

###

Below, each entry is listed alongside its reported response.
Test: cytosolic pH regulators acting via V-ATPase – S. cerevisiae, pHLuorin, HTS validation (AID 504600);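 also: plate controls were DMSO for no effect and reference compound for full effect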
Conditions: V-ATPase proton transport, at 10 µM, stronger effect = higher value
Number in %, nothing else.

Example results:
O=C(O)C(O)c1ccccc1 (stereo not drawn)
1.56
COc1ccc(NC(=O)C2CCCN2C(=O)OC(C)(C)C)cc1 (stereo not drawn)
-0.27

We next turn to a different compound, shown below.
In: Give the reported response for this compound. COc1ccccc1C(O)c1nccn1C (stereo not drawn)
Out: 24.9

###

Assay: TOR pathway GLN3 branch reporter MEP2-GFP changes – S. cerevisiae, multiplex flow cytometry, primary screen (AID 1867);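 also: median GFP channel fluorescence of barcode-gated MEP2-GFP cells measured by flow cytometry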
Details: S. cerevisiae MEP2-GFP strain, 3 h, at 10 µM, stronger effect = higher value, 100% means same as DMSO wells
Inconclusive results are not listed.
parameter-measured: GFP response vs DMSO (%)
Number in %, nothing else.

In: Give the reported GFP response vs DMSO for this compound. "COc1cc(/C=C/C(=O)O)cc(S(=O)(=O)NCCCO)c1OC"
Out: 98.5

###

Test: AML differentiation inducers, ER-HoxA9 marrow cells – cell-based, GFP/MAC1 double positive, flow cytometry, validation set, primary screen (AID 588685);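 also: compound exposure lasts four days before antibody staining and flow analysis; 0% = DMSO wells and 100% = 5 µM fulvestrant positive control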
Settings: stronger effect = higher value, normalized: vehicle 0, fulvestrant 100
parameter-measured: differentiation response (%)
Number in %, nothing else.

Example results:
c1ccc(SSc2ccccc2)cc1
-2.69
Cc1ccc(C(=O)COC(=O)c2cccc(N3C(=O)c4c(C)nc5ccccc5c4C3=O)c2)cc1C
-13.9
OCCN1CCN(CCCN2c3ccccc3Sc3ccc(C(F)(F)F)cc32)CC1
0.92

In: Give the reported differentiation response for this molecule. "CCOc1ccc2ccccc2c1C(=O)N[C@@H]1C(=O)N2[C@@H]1SC(C)(C)[C@@H]2C(=O)O"
Out: 11

In: Give the reported differentiation response for this molecule. "COc1cc(NS(=O)(=O)c2ccc(N)cc2)nc(OC)n1"
Out: 14.9

In: Give the reported differentiation response for this molecule. "C[C@H]1C[C@@H]2[C@H]([C@@H](O)C[C@@]3(C)[C@H]2CC[C@]3(O)C(=O)CO)[C@@]2(C)C=CC(=O)C=C12"
Out: 0

In: Give the reported differentiation response for this molecule. O=C1c2ccccc2N2C(=O)c3ccccc3C2N1Cc1ccco1 (stereo not drawn)
Out: -1.65

###

Below, each entry is listed alongside its reported GFP response vs DMSO.
Experiment: TOR pathway LAP4-GFP level changes – S. cerevisiae, multiplex flow cytometry, primary screen (AID 1873)
Details: S. cerevisiae LAP4-GFP expression, 3 h, at 10 µM, stronger effect = higher value
Records with an inconclusive call do not appear.
Number in %, nothing else.

Example results:
COc1ccccc1N=CC1=C(O)CC(c2ccccc2)CC1=O (stereo not drawn)
82.5
COc1ccc(C2C(C#N)=C(N)Oc3cc(C)[nH]c(=O)c32)c(OC)c1OC (stereo not drawn)
78.1
CN(C)CCCN1c2ccccc2Sc2ccccc21
107
CC(C)CC1c2[nH]c3ccccc3c2CCN1C(=O)CCC(=O)N(C)C (stereo not drawn)
79.2
C[C@]12CC[C@@H]3c4ccc(O)cc4[C@@H](O)C[C@H]3[C@@H]1CC[C@@H]2O
98

In: Give the reported GFP response vs DMSO for this compound. CC(C)C1CC(CCNCc2ccc(N(C)C)cc2)(c2ccccc2)CCO1 (stereo not drawn)
Out: 76.5

In: Give the reported GFP response vs DMSO for this compound. "N/C(=N\OC(=O)CCCOc1ccc(Cl)cc1Cl)c1ccncc1"
Out: 118

In: Give the reported GFP response vs DMSO for this compound. O=c1[nH]c(=O)n(C2CCCO2)cc1F (stereo not drawn)
Out: 81.4

Data provenance: PubChem BioAssay
